Tested on: Candida parapsilosis Y-1763
Format: cell-based
conditionInfo: Y-1763, 24 h
Square brackets hold non-standard residues; d marks the D form. Peptide text beside a SMILES is read from it. Orn = NCCC[C@H](N)C(=O)O

molecule	system	MIC against Candida parapsilosis Y-1763
CC[C@H](C)[C@H](NC(=O)[C@H](CCCCN)NC(=O)[C@H](CC(C)C)NC(=O)[C@H](CCCN)NC(=O)[C@H](CC(C)C)NC(=O)[C@H](CCCNC(=N)N)NC(=O)[C@H](C)NC(=O)[C@H](CCCNC(=N)N)NC(=O)[C@@H](NC(=O)[C@H](CCCN)NC(=O)[C@H](Cc1ccccc1)NC(=O)[C@H](CCCNC(=N)N)NC(=O)[C@H](C)NC(=O)[C@H](CCCCN)NC(=O)[C@@H](NC(=O)[C@H](CCCN)NC(=O)[C@@H](N)Cc1ccccc1)[C@@H](C)CC)C(C)C)C(N)=O [RP553] (H-F[Orn]IKARF[Orn]VRARL[Orn]LKI-NH2)	Candida parapsilosis Y-1763	32 µg/mL

###

Entries and their MIC against Aspergillus fumigatus 9648 values follow.
Test system: Aspergillus fumigatus 9648
Format: cell-based
conditionInfo: 9648, 24 h
Bridge positions count the residues as written; N and C are the ends. Square brackets hold non-standard residues; d marks the D form. Peptide text beside a SMILES is read from it. Orn = NCCC[C@H](N)C(=O)O

compound	MIC against Aspergillus fumigatus 9648 [µg/mL]
CSCC[C@@H]1NC(=O)[C@H](C(C)C)NC(=O)[C@H](C(C)C)NC(=O)[C@H](CC(C)C)NC(=O)[C@H](Cc2c[nH]c3ccccc23)NC(=O)[C@H](C(C)C)NC(=O)[C@@H](NC(=O)[C@H](Cc2c[nH]c3ccccc23)NC(=O)[C@@H](N)CCCNC(=N)N)CSSC[C@@H](C(=O)N[C@@H](CCCCN)C(=O)N[C@@H](CCCCN)C(N)=O)NC1=O [RP513] (H-RWCVWLVVMCKK-NH2; disulfide 3-10)	128
CC[C@H](C)[C@H](NC(=O)[C@H](CCCCN)NC(=O)[C@H](CC(C)C)NC(=O)[C@H](CCCN)NC(=O)[C@H](CC(C)C)NC(=O)[C@H](CCCNC(=N)N)NC(=O)[C@H](C)NC(=O)[C@H](CCCNC(=N)N)NC(=O)[C@@H](NC(=O)[C@H](CCCN)NC(=O)[C@H](Cc1ccccc1)NC(=O)[C@H](CCCNC(=N)N)NC(=O)[C@H](C)NC(=O)[C@H](CCCCN)NC(=O)[C@@H](NC(=O)[C@H](CCCN)NC(=O)[C@@H](N)Cc1ccccc1)[C@@H](C)CC)C(C)C)C(N)=O [RP553] (H-F[Orn]IKARF[Orn]VRARL[Orn]LKI-NH2)	128
CC[C@H](C)[C@H](NC(=O)[C@H](CCCN)NC(=O)[C@H](C)NC(=O)[C@H](CCCN)NC(=O)[C@H](CC(C)C)NC(=O)[C@H](CCCN)NC(=O)[C@@H](NC(=O)[C@H](CCCN)NC(=O)[C@@H](NC(=O)[C@H](CCCN)NC(=O)[C@H](C)NC(=O)[C@H](CCCN)NC(=O)[C@H](CC(C)C)NC(=O)[C@H](CCCN)NC(=O)[C@@H](N)Cc1ccccc1)[C@@H](C)CC)C(C)C)C(=O)N[C@@H](CCCN)C(=O)N[C@@H](CC(C)C)C(N)=O [RP554] (H-F[Orn]L[Orn]A[Orn]I[Orn]V[Orn]L[Orn]A[Orn]I[Orn]L-NH2)	64

// provenance: paper PMC7559897
